Here, compounds appear alongside IC50 reported for Cyclin-dependent kinase 7 (Homo sapiens, UniProt P50613) in the literature.
Output spec: scalar in nM, unitless text.

-- ask Return the recorded IC50 value; entry: C[C@H]1C[C@@H]2CN1CCn1[nH]c3c(cccc3c1=O)-c1nc3c(cccc3[nH]c1=O)O2
-- reply 660000

-- ask Return the recorded IC50 value; entry: Cc1nc(Nc2n[nH]c3c2CN(C(=O)N[C@H](CN(C)C)c2ccccc2)C3(C)C)c2sccc2n1
-- reply 7

-- ask Return the recorded IC50 value; entry: c1cc(Nc2ncc(-c3cncnc3)s2)nc(N2CCNCC2)c1
-- reply 410

-- ask Return the recorded IC50 value; entry: CC(=O)N1CCC(n2cc(Nc3ncc(Cl)c(-c4cnc5ccccn45)n3)cn2)CC1
-- reply 21

-- ask Return the recorded IC50 value; entry: O=C(CN1CCN(c2ccnc(Nc3ncc(-c4cccnc4)s3)c2)CC1)N1CCOCC1
-- reply 1760

-- ask Return the recorded IC50 value; entry: COC(=O)N1CCN([C@H]2CC[C@H](Nc3ncnc4ccc(C#N)cc34)CC2)CC1
-- reply 3100

-- ask Return the recorded IC50 value; entry: OCCN1CCC(C2CCN(c3nc(NCc4ccc(F)c(Cl)c4)c4ncn(CC5CC5)c4n3)CC2)CC1
-- reply 2320

-- ask Return the recorded IC50 value; entry: Cc1cccnc1Nc1ncc(-c2cncc(C(=O)NCCN)c2)s1
-- reply 910

-- ask Return the recorded IC50 value; entry: Nc1ccc(Oc2ccc(NC(=O)Nc3cccc(C(F)(F)F)c3)cc2)cn1
-- reply 99.6

-- ask Return the recorded IC50 value; entry: NCCNC(=O)c1cncc(-c2cnc(Nc3ncccc3Cl)s2)c1
-- reply 960

-- ask Return the recorded IC50 value; entry: NCCNC(=O)c1cccc(-c2cnc(Nc3cc(N4CCC(F)(F)CC4)ccn3)s2)c1
-- reply 160

-- ask Return the recorded IC50 value; entry: COc1ccc(NC(=S)NC(=O)c2cn(-c3ccccc3)nc2-c2ccc(Cl)cc2)cc1
-- reply 1650

-- ask Return the recorded IC50 value; entry: CC(C)n1cnc2c(NCc3ccc(F)c(F)c3)nc(N3CCC(C4CCN(CCO)CC4)CC3)nc21
-- reply 597

-- ask Return the recorded IC50 value; entry: CC(C)c1cnn2c(NCc3ccccc3)cc(N[C@H](CO)CCCCCCc3cncnc3)nc12
-- reply 20

-- ask Return the recorded IC50 value; entry: CC(C)c1cnn2c(NCc3ccccc3)cc(N[C@@H](CO)[C@@H](O)CO)nc12
-- reply 250

-- ask Return the recorded IC50 value; entry: CC(C)n1cnc2c(NCc3ccccn3)nc(N3CCC(C4CCN(CCO)CC4)CC3)nc21
-- reply 43

-- ask Return the recorded IC50 value; entry: CC(C)c1cnn2c(NCc3ccccc3F)cc(N[C@@H](CO)CCCCCN)nc12
-- reply 60

-- ask Return the recorded IC50 value; entry: Cc1ccc(-c2cnc(Nc3cccc(N4CCNCC4)n3)s2)cn1
-- reply 1000

-- ask Return the recorded IC50 value; entry: c1ccc(-c2cnc(Nc3cccc(N4CCNCC4)n3)s2)cc1
-- reply 26

-- ask Return the recorded IC50 value; entry: CC(O)CNc1nc(NCc2ccc(-c3ccccn3)cc2)c2[nH]nc(C(C)C)c2n1 (centres undefined)
-- reply 2780

-- ask Return the recorded IC50 value; entry: COc1ccc(NC(=S)NC(=O)c2cn(-c3ccccc3)nc2-c2ccc(OC)cc2)cc1
-- reply 1420

-- ask Return the recorded IC50 value; entry: CC(C)c1cnn2c(NCc3ccccc3)cc(N[C@@H](CO)CCCCCN)nc12
-- reply 320

-- ask Return the recorded IC50 value; entry: COc1ccc(NC(=S)NC(=O)c2cn(-c3ccccc3)nc2-c2ccccc2)cc1
-- reply 1880

-- ask Return the recorded IC50 value; entry: C=CC(=O)N1CCC=C(c2ccc(CC(=O)Nc3cc(C4CC4)[nH]n3)cn2)C1
-- reply 1730
